METHOD: chemical genetic growth profiling, strain panel (AID 1159580);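 also: tested at 20 µM; growth read once vehicle control cultures reached saturation at 30 °C; 1 = growth at the plate median or of vehicle wells; lower values mean less growth of the strain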
ASSAY_SETUP: S. cerevisiae deletion strains, growth OD, locus YOL006C, strain TOP1, hits give low values
About 2,000 (36%) of roughly 5,500 compounds were called active. Roughly 18% stayed inconclusive and do not appear here. Some of the results follow.
Reported normalized growth values are given for each entry in this list.
Give the value as a plain number.

Data request: // query normalized growth value for entry CC(C)N=C(N)N=C(N)Nc1ccc(Cl)cc1
Data returned: 1.02

Data request: Thanks! And CCOC(=O)c1ccc(N2CCOCC2)c(N=Cc2cc(Cl)ccc2O)c1 ?
Data returned: 0.323

Data request: Thanks! And O=C(OCCNc1ccc([N+](=O)[O-])cn1)c1ccc([N+](=O)[O-])o1 ?
Data returned: 0.831

Data request: Thanks! And CCOC(=O)c1ccc(NC(=S)N2CCOCC2)cc1 ?
Data returned: 0.805

Data request: Thanks! And ClC1C(Cl)C(Cl)C(Cl)C(Cl)C1Cl (configuration not stated) ?
Data returned: 0.843

Data request: Thanks! And CCCc1ccc(/C(C)=N\O)cc1 ?
Data returned: 0.945

Data request: Thanks! And Cc1cc(N=C(N)N=C(N)N)no1 ?
Data returned: 1.02

Data request: Thanks! And Cc1c(-c2csc(-c3ccc(Cl)cc3)n2)sc2ccc(Cl)cc12 ?
Data returned: 1.1

Data request: Thanks! And O=[N+]([O-])c1ccc(NCCCCCO)nc1 ?
Data returned: 0.955

Data request: Thanks! And CN1CCN(C2=Nc3cc(Cl)ccc3Nc3ccccc32)CC1 ?
Data returned: 0.988

Data request: Thanks! And CCOC(=O)CCC(C#N)(c1ccc(Cl)cc1)N1CCOCC1 (configuration not stated) ?
Data returned: 0.904

Data request: Thanks! And COc1ccc(NS(=O)(=O)c2ccc(N)cc2)nn1 ?
Data returned: 1.09

====

METHOD: chemical genetic growth profiling, strain panel (AID 1159580)
ASSAY_SETUP: S. cerevisiae deletion strains, growth OD, locus YBR023C, strain chs3, hits give low values
About 2,000 (36%) of roughly 5,500 compounds were called active. Inconclusive results (about 18%) are left out. The list shows a part of the results.
Reported normalized growth values are given for each entry in this list.
Give the value as a plain number.

# MOLECULE, normalized growth
measured = [
    ("COc1cc(O)ccc1C(C)=O", 1.04),
    ("O=C(/C=C/c1ccccc1)c1ccc(O)cc1O", 0.0637),
    ("O=C(O)c1cc(=O)c2ccccc2[nH]1", 0.98),
]

Data request: // query normalized growth value for entry O=C(/C=C/c1ccc(O)cc1)c1ccccc1O
Data returned: 0.452

Data request: Thanks! And COc1ccc([C@@H](C)C(=O)c2ccc(O)cc2O)cc1 ?
Data returned: 0.974

Data request: Thanks! And O=C(O)C1=C(CSc2nnnn2CS(=O)(=O)O)CS[C@@H]2C(NC(=O)[C@H](O)c3ccccc3)C(=O)N12 (stereo partly drawn) ?
Data returned: 0.988

Data request: Thanks! And CNC(=O)Oc1ccccc1OC(C)C ?
Data returned: 0.985

Data request: Thanks! And CC(=O)O[C@H]1CC2CCC3C(CC[C@@]4(C)C3C[C@H]([N+]3(C)CCCCC3)[C@@H]4OC(C)=O)[C@@]2(C)C[C@@H]1N1CCCCC1 (stereo partly drawn) ?
Data returned: 1.02

Data request: Thanks! And CCC1(C2=NCCN2)Cc2ccccc2O1 (stereo not drawn) ?
Data returned: 1.01

Data request: Thanks! And CC[C@H]1OC(=O)[C@H](C)[C@@H](O[C@H]2C[C@@](C)(OC)[C@@H](O)[C@H](C)O2)[C@H](C)[C@@H](O[C@@H]2O[C@H](C)C[C@H](N(C)C)[C@H]2O)[C@](C)(O)C[C@@H](C)/C(=N/OCOCCOC)[C@H](C)[C@@H](O)[C@]1(C)O ?
Data returned: 1.01

Data request: Thanks! And CC(=O)OC[C@@]1(O)C[C@@]23CCC4c5ccoc5CC[C@]4(C)C2CC[C@@H]1C3 (stereo partly drawn) ?
Data returned: 0.953

====

METHOD: chemical genetic growth profiling, strain panel (AID 1159580);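 also: tested at 20 µM; growth read once vehicle control cultures reached saturation at 30 °C; 1 = growth at the plate median or of vehicle wells; lower values mean less growth of the strain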
ASSAY_SETUP: S. cerevisiae deletion strains, growth OD, locus YOR136W, strain idh2, hits give low values
Screen size: about 5,500 compounds; about 2,000 (36%) were called active. About 18% were inconclusive and are not listed. This is one part of the list.
Yes if normalized growth is below 1. No if not; exact matches included in No.

Use these answered entries as a reference point.
# TEST_SMILES, QUALITATIVE_LABEL
measured = [
    ("Cc1cc(O)c2c(c1)C(=O)c1cc(O)cc(O)c1C2=O", "Yes"),
    ("O=C(O)c1cc(O)c2c(c1)C(=O)c1cc(O)cc(O)c1C2=O", "Yes"),
    ("OC[C@H]1O[C@@H](Oc2ccc(O)cc2)[C@H](O)[C@@H](O)[C@@H]1O", "No"),
    ("NC(=NCCCCCCN=C(N)N=C(N)Nc1ccc(Cl)cc1)N=C(N)Nc1ccc(Cl)cc1", "Yes"),
    ("O=C(/C=C/c1ccccc1)c1ccc(O[C@@H]2O[C@H](CO)[C@@H](O)[C@H](O)[C@H]2O)cc1O", "Yes"),
]

Now look at this one.
Data request: Dear colleague, could you confirm whether normalized growth of O=C1c2cccc(O)c2C(=O)c2c(O)cccc21 falls below 1? Thanks.
Data returned: Yes

====

Reported normalized growth values are given for each entry in this list.
METHOD: chemical genetic growth profiling, strain panel (AID 1159580);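 also: tested at 20 µM; growth read once vehicle control cultures reached saturation at 30 °C; 1 = growth at the plate median or of vehicle wells; lower values mean less growth of the strain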
ASSAY_SETUP: S. cerevisiae deletion strains, growth OD, locus YMR231W, strain pep5, hits give low values
The campaign covered roughly 5,500 compounds. About 2,000 (36%) were called active. Another 18% or so got no clear call; they are omitted. The list shows a part of the results.

# annotated cases, reported normalized growth shown
# TEST_SMILES, PARAMETER, MEASUREMENT
rows = [
    ("Cn1cnc2c1c(=O)[nH]c(=O)n2C", "normalized growth", "1 (inactive)"),
    ("O=C(Nc1ccc([N+](=O)[O-])cc1Cl)c1cc(Cl)ccc1O", "normalized growth", "0.901 (active)"),
    ("Cn1c(=O)[nH]c2ncn(C)c2c1=O", "normalized growth", "0.961 (inactive)"),
    ("O=c1c(O)c(-c2ccccc2)oc2cc(O)ccc12", "normalized growth", "0.336 (active)"),
    ("CC(=O)CCCCn1c(=O)c2c(ncn2C)n(C)c1=O", "normalized growth", "1.02 (inactive)"),
    ("Cn1c(=O)c2c(ncn2CCO)n(C)c1=O", "normalized growth", "1 (inactive)"),
]

// below: normalized growth requested for another compound
Data request: // query normalized growth value for entry Cn1c(=O)c2c(ncn2C)n(C)c1=O
Data returned: 0.987 (inactive)

====

METHOD: chemical genetic growth profiling, strain panel (AID 1159580);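 also: tested at 20 µM; growth read once vehicle control cultures reached saturation at 30 °C; 1 = growth at the plate median or of vehicle wells; lower values mean less growth of the strain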
ASSAY_SETUP: S. cerevisiae deletion strains, growth OD, locus YNL248C, strain rpa49
Hit rate of the full screen: of about 5,500 compounds, about 2,000 (36%) were called active. About 18% were inconclusive and are not listed. Rule as the data show it: active = normalized growth mostly below about 0.91 (no sharp cut-off); inconclusive = no clear call, values can overlap the other calls; inactive = mostly above about 0.92. Some of the results follow.
Allowed answers: 1.0 (active), 0.0 (inactive)

Use these answered entries as a reference point.
# MOLECULE, QUALITATIVE_LABEL
rows = [
    ("O=c1c(O)c(-c2ccc(O)cc2)oc2ccccc12", 1.0),
    ("CN1CCC[C@H]1c1cccnc1", 0.0),
    ("O=C(/C=C/c1ccccc1)c1ccc(O[C@@H]2O[C@H](CO)[C@@H](O)[C@H](O)[C@H]2O)cc1O", 0.0),
    ("CC(C)N1C(=O)c2ccccc2NS1(=O)=O", 0.0),
    ("O=C(O)CCC(=O)OC[C@@H](NC(=O)C(Cl)Cl)[C@H](O)c1ccc([N+](=O)[O-])cc1", 0.0),
    ("CC(=O)Nc1c(I)cc(I)c(C(=O)O)c1I", 0.0),
    ("COc1cc(O)c2c(c1)C(=O)c1cc(C)cc(O)c1C2=O", 0.0),
    ("O=C1C=CC(=O)c2c(O)c(Cl)c(Cl)c(O)c21", 1.0),
    ("O=C1C=CC(=O)c2c(O)cccc21", 0.0),
    ("CC(=O)c1ccc[nH]1", 0.0),
]

Data request: Hi, sorry to bother you, what did the test record for ClC1C(Cl)C(Cl)C(Cl)C(Cl)C1Cl (configuration not stated) ?
Data returned: 0.0

Data request: Thanks! And O=C(O)[C@H]1/C(=C/CO)O[C@@H]2CC(=O)N21 ?
Data returned: 0.0

Data request: Thanks! And CCCCCCCCCCCCCCCC(=O)OC[C@H](NC(=O)C(Cl)Cl)[C@H](O)c1ccc([N+](=O)[O-])cc1 ?
Data returned: 0.0

Data request: Thanks! And O=C(/C=C/c1ccccc1)c1ccc(O)cc1O ?
Data returned: 1.0

Data request: Thanks! And COC1=CC23CCCN2CCc2cc4c(cc2C3C1O)OCO4 (configuration not stated) ?
Data returned: 0.0

Data request: Thanks! And CC(C)c1cc2c(c(O)c1O)[C@@]1(C(=O)O)CCCC(C)(C)C1CC2 (some centres not stated) ?
Data returned: 0.0

Data request: Thanks! And O=C(O)C1=C(CSc2nnnn2CS(=O)(=O)O)CS[C@@H]2C(NC(=O)[C@H](O)c3ccccc3)C(=O)N12 (some centres not stated) ?
Data returned: 0.0

Data request: Thanks! And CC(=O)O[C@H]1CC2CCC3C(CC[C@@]4(C)C3C[C@H]([N+]3(C)CCCCC3)[C@@H]4OC(C)=O)[C@@]2(C)C[C@@H]1N1CCCCC1 (some centres not stated) ?
Data returned: 0.0

Data request: Thanks! And O=c1c(O)c(-c2ccccc2)oc2ccccc12 ?
Data returned: 1.0

Data request: Thanks! And COc1ccc(-c2c(O)c3c(OC)c4c(cc3oc2=O)OC(C)(C)C=C4)cc1 ?
Data returned: 0.0

Data request: Thanks! And CCCc1ncc(C[n+]2ccccc2C)c(N)n1 ?
Data returned: 0.0
